System: TK-10
Test: NCI tumour cell line growth inhibition, 48 h
Active and inactive are the calls of the source. Rule as the data show it: active = GI50 up to about 1.1 µM and inactive = higher.
experimental-readout: GI50

{"columns": ["compound", "recorded-value"],
 "data": [
  ["CSc1nc(Br)nc2ncn(C3CC(Oc4ccc(C)cc4)C(COc4ccc(C)cc4)O3)c12 (stereo not drawn)", "> 100 µM (inactive)"],
  ["O=C1NC(=O)C(CC(C(=O)C(=O)Nc2ccccc2Cl)C(=O)c2ccc3ccccc3c2)C(=O)N1 (stereo not drawn)", "> 100 µM (inactive)"],
  ["O=C1Nc2ccccc2N=CC1NC(=O)C(c1ccccc1)c1ccccc1 (stereo not drawn)", "> 100 µM (inactive)"],
  ["c1csc(-c2nccc3c2[nH]c2ccccc23)c1", "21.1 µM (inactive)"],
  ["CS/C(=N\\c1ccccc1Cl)NC(=O)c1ccc(Br)cc1", "28.2 µM (inactive)"],
  ["CC(C)NC(=O)OCCN=c1c2ccccc2ccc2ccccc12", "50.7 µM (inactive)"],
  ["CCn1c(=O)c2nc(SC)sc2n(-c2ccccc2)c1=O", "> 100 µM (inactive)"],
  ["COc1cc(OC)c2c(c1)OC(c1cccnc1)C(c1ccccc1)C2=O (stereo not drawn)", "> 100 µM (inactive)"],
  ["C=CCOC1OC(CS(=O)(=O)O)C(OC(C)=O)C(OC(C)=O)C1OC(C)=O (stereo not drawn)", "> 100 µM (inactive)"],
  ["COc1ccccc1/N=N/c1c(-c2ccccc2)nn(C(=O)CC(=O)Nc2cccc(C)c2)c1-c1ccccc1", "72.1 µM (inactive)"],
  ["N#CCC(=O)N/N=C\\C(O)C(O)C(O)C(O)CO (stereo not drawn)", "> 100 µM (inactive)"],
  ["c1ccc2c(c1)nc1ccccn12", "> 100 µM (inactive)"],
  ["CCCOCN1COCN/C1=N\\C#N", "> 100 µM (inactive)"],
  ["CC(=O)OCC1OC(N2C(=O)C(=O)c3ccccc32)C(OC(C)=O)C(OC(C)=O)C1OC(C)=O (stereo not drawn)", "> 100 µM (inactive)"],
  ["COc1cccc(OC)c1/C=C1\\OC(=O)c2cccc(OC)c21", "11.5 µM (inactive)"],
  ["Nc1ncnc2c1ncn2C1OC(CO)=CC1O (stereo not drawn)", "> 37.5 µM (inactive)"],
  ["O=C(N/N=C/c1ccc([N+](=O)[O-])cc1)Nc1ccc(C(=O)O)cc1", "34.4 µM (inactive)"],
  ["C=CCN(C(C)=O)c1cc(OCc2ccccc2)c2c(c1)c(C)cn2S(=O)(=O)c1ccccc1", "39.6 µM (inactive)"],
  ["O=C(CCSC(CC(=O)c1ccc(Cl)cc1)c1ccc(Cl)cc1)Nc1ccc(Cl)cc1 (stereo not drawn)", "14.6 µM (inactive)"],
  ["C=C(C)C1CC=C(C(=O)O)CC1 (stereo not drawn)", "1580 µM (inactive)"],
  ["O=C1c2ccccc2-n2c1nc1ccc([N+](=O)[O-])cc1c2=O", "> 100 µM (inactive)"],
  ["CCOc1ccc(NC(=O)/C(=N\\NC(C)(C)C)C2C(=O)Nc3ccccc3[S+]2[O-])cc1 (stereo not drawn)", "> 100 µM (inactive)"],
  ["CCOP(=O)(OCC)/C(C#N)=C/c1cnc[nH]1", "> 100 µM (inactive)"]
]}

* * *

System: HCT-15
Test: NCI tumour cell line growth inhibition, 48 h

{"columns": ["compound", "GI50"],
 "data": [
  ["O=c1c2cc(I)ccc2nc(S)n1Cc1ccccc1", "32.1 µM"],
  ["COc1ccc(C2OC(c3ccncc3)=NN2C)cc1F (centres undefined)", "> 100 µM"],
  ["CC(=O)OCC1OC(NC(=S)CCSc2nc3ccccc3c(=O)n2-c2ccccc2)C(OC(C)=O)C(OC(C)=O)C1OC(C)=O (centres undefined)", "53.7 µM"],
  ["Cc1c(C)c2cc3c(=O)c(CCl)coc3c(C)c2oc1=O", "> 100 µM"],
  ["Cc1ccc(N/C(Sc2ccccc2)=C(/C(Cl)=C(Cl)Cl)[N+](=O)[O-])c(C)c1", "16.8 µM"],
  ["COC(=O)C1=C(C(=O)OC)C2C(C)=CC(C)=CN2C(C#N)=C(SC)S1 (centres undefined)", "19.7 µM"],
  ["COC(=O)c1c(OC(C)=O)ccc2c1c1c(n2C)C(=O)c2ccccc2C1=O", "24.8 µM"],
  ["CC(C)[C@H](COC(C)(C)C)/N=C/N1CSc2ccccc21", "84.9 µM"],
  ["NCCNc1ccc(NCCN)c2c1C(=O)c1c(O)ccc(O)c1C2=O", "0.161 µM"],
  ["COc1ccc2c(c1)OCCc1cn[nH]c1-2", "35.2 µM"],
  ["COc1ccc(CCCNC(=O)c2cc(OC)c(OC)cc2CCO)cc1OC", "> 100 µM"],
  ["CC(=O)O[C@H]1CC[C@@]2(C)C(=CC[C@H]3[C@@H]4C[C@H](N5CCCC5)[C@H](OC(C)=O)[C@@]4(C)CC[C@@H]32)C1", "> 100 µM"],
  ["Cc1cc(C[C@H]2O[C@@H]3OC(C)(C)O[C@@H]3[C@H]3OC(C)(C)O[C@H]32)c2ccccc2n1", "76.4 µM"],
  ["CCn1c(=O)c2nc(SC)sc2n(-c2ccccc2)c1=O", "> 100 µM"],
  ["O=C(O)C1(Cc2ccc3c(c2)CCC3)Cc2ccccc2C1", "54.2 µM"],
  ["CCOC(=O)C1(C#N)C2(C#N)C(N)=NC(ON=C(C)C)(ON=C(C)C)C12C#N (centres undefined)", "> 100 µM"],
  ["COc1ccc2c(c1OC)OCC(CN(C)C)C2=O (centres undefined)", "18.1 µM"],
  ["CCOC(=O)C1=NN(c2ccccc2)C(=O)/C1=C\\NC(=S)C(N)=S", "34.1 µM"],
  ["O=C(O)CN1C=C(C(=O)c2cc3ccccc3n2S(=O)(=O)c2ccccc2)CCC1", "49.2 µM"],
  ["COc1nn(Cc2ccccc2F)c2ccc([N+](=O)[O-])cc12", "> 100 µM"],
  ["CCCC[C@@H](C)/C=C1\\CN2CCC[C@H]2[C@@](C)(OCc2ccccc2)[C@@H]1O", "> 50 µM"],
  ["Cc1ccccc1NC(=O)/C=N/O", "> 100 µM"],
  ["C=CCc1[nH]c2c(OCc3ccccc3)cc(N(CC=C)C(C)=O)cc2c1C", "12.9 µM"],
  ["O=C1C(Cl)C(c2ccccc2O)N1n1cnc2ccccc2c1=O (centres undefined)", "2.99 µM"],
  ["CS/C(=N\\c1ccccc1Cl)NC(=O)c1ccc(Br)cc1", "> 100 µM"],
  ["COc1cc2c(cc1OC)[C@@H]([C@H](O)c1ccccc1)NCC2", "> 100 µM"],
  ["Cc1cccc(/C=N/NC(=S)Nc2ccccc2)n1", "1.98 µM"],
  ["COc1cc(OC)c2c(c1)OC(c1cccnc1)C(c1ccccc1)C2=O (centres undefined)", "> 100 µM"],
  ["NC(=S)N/N=C/c1cn(CCCl)c2ccccc12", "8.69 µM"],
  ["O=C1CC(c2ccc(Cl)cc2)Oc2ccccc21 (centres undefined)", "17 µM"],
  ["CCOC(=O)c1c2ccccc2n2c(=O)n(C)nnc12", "> 100 µM"],
  ["Cn1c(=O)c2nc(COCc3nc4c(=O)n(C)c(=O)n(C)c4[nH]3)[nH]c2n(C)c1=O", "> 100 µM"],
  ["COC(=O)C1Cc2cccc(C)c2C1 (centres undefined)", "37.3 µM"],
  ["CCc1nnc(-c2nsc3ccccc23)s1", "72.4 µM"],
  ["CC(C)(C)C(=O)/C=C(\\OB(F)F)C(C)(C)C", "> 100 µM"],
  ["COc1ccc(C2c3c(n(C)c(=O)n(C)c3=O)OC(N(C)C)(N(C)C)C2(F)F)cc1 (centres undefined)", "> 100 µM"],
  ["O=[N+]([O-])C(=C(Sc1ccccc1)Sc1ccccc1)C(Cl)=C(Cl)Cl", "0.319 µM"],
  ["O=c1c2c3c(sc2nc2n1NC=NN2)CCCC3", "17.4 µM"],
  ["CC(C)c1cccc(C(C)C)c1NC(=S)Nc1ccccc1", "> 100 µM"],
  ["CCCCC/C(=N\\c1[nH]nnc1C(N)=O)OCC", "> 100 µM"],
  ["O=c1c2c3ccccc3[nH]c2c2cccc3c2n1CCC3", "32.4 µM"],
  ["CN(C)c1ccc(/N=N\\c2cccc3ncccc23)cc1", "51.9 µM"],
  ["CC1=NN=C(N)N/C1=C/C(Sc1ccc(Cl)cc1)c1cccs1 (centres undefined)", "6.12 µM"],
  ["CC(=O)c1sc2c(c1OC(=O)c1ccc(Cl)cc1)c(=O)n(-c1ccccc1)c(=S)n2-c1ccccc1", "9.18 µM"]
]}

Source listed as ChEMBL document CHEMBL1201862.
